- target-desc: progesterone receptors of rabbit uterus (Oryctolagus cuniculus, UniProt P06186)
- Construct: The first test was on the progesterone receptors of rabbit uterus; from tissue; host or cells: uterus of estradiol-treated immature rabbits, 105,000 g supernatant (cytosol)
- Sequence (P06186 whole entry): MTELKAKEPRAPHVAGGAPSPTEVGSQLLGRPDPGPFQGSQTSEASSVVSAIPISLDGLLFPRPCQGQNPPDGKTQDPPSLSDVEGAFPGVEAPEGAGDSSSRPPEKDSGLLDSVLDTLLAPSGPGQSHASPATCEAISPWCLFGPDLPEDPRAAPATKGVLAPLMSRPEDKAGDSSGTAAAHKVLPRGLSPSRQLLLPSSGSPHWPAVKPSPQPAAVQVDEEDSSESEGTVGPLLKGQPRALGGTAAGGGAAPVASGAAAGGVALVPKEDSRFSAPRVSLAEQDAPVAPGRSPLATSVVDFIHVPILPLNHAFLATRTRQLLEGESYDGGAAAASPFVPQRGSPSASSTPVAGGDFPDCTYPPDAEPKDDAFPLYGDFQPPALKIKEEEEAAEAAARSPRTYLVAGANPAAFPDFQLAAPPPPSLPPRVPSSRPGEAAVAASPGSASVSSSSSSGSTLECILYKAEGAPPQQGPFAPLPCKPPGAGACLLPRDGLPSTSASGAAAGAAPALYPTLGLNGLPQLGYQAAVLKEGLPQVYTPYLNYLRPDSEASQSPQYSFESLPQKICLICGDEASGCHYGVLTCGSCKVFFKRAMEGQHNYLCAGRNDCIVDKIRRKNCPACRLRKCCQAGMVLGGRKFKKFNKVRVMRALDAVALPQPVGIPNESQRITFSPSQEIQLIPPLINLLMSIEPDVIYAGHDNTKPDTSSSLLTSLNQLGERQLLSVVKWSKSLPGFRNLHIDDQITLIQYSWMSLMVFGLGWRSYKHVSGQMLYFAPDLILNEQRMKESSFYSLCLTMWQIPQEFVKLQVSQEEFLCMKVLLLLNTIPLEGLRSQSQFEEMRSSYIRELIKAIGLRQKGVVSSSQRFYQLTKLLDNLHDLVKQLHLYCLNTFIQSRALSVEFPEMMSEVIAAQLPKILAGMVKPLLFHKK
- assay-overview: Relative binding affinity (ARL), progesterone receptors of rabbit uterus
- conditions: incubation 2H at 0° C.; rabbit uterus cytosol; tritiated 17,21-dimethyl-19-nor-Δ4,9-pregnadiene-3,20-dione; cold reference hormone progesterone
parameter: relative affinity of the bond (ARL), Progestogen, 2H
Reply briefly: the number, and no unit.

• CN(C)c1ccc([C@H]2C[C@@]3(C)[C@@H](CC[C@@]3(O)c3ccc(O)cc3)[C@@H]3CCC4=CC(=O)CCC4=C32)cc1 = 33
• COc1ccccc1[C@@]1(O)CC[C@H]2[C@@H]3CCC4=CC(=O)CCC4=C3[C@@H](c3ccc(N(C)C)cc3)C[C@@]21C = 12
• CN(C)c1ccc([C@H]2C[C@@]3(C)[C@@H](CC[C@@]3(O)c3ccccc3)[C@@H]3CCc4cc(O)ccc4[C@H]32)cc1 = 5
• Cc1ccc([C@]2(O)CC[C@H]3[C@@H]4CCC5=CC(=O)CCC5=C4[C@@H](c4ccc(N(C)C)cc4)C[C@@]32C)cc1 = 22
• CN(C)c1ccc([C@H]2C[C@@]3(C)[C@@H](CC[C@@]3(O)c3cccc(O)c3)[C@@H]3CCC4=CC(=O)CCC4=C32)cc1 = 34

Challenge: Item under review: CN(C)c1ccc([C@H]2C[C@@]3(C)[C@@H](CC[C@@]3(O)c3ccc(N(C)C)cc3)[C@@H]3CCC4=CC(=O)CCC4=C32)cc1 . Reported relative affinity of the bond (ARL), Progestogen, 2H?
Response given: 32

Challenge: And for COc1cccc([C@]2(O)CC[C@H]3[C@@H]4CCC5=CC(=O)CCC5=C4[C@@H](c4ccc(N(C)C)cc4)C[C@@]32C)c1 ?
Response given: 24

Challenge: And for COc1ccc([C@]2(O)CC[C@H]3[C@@H]4CCC5=CC(=O)CCC5=C4[C@@H](c4ccc(N(C)C)cc4)C[C@@]32C)cc1 ?
Response given: 51

Challenge: And for COc1ccccc1[C@]1(O)CC[C@H]2[C@@H]3CCC4=CC(=O)CCC4=C3[C@@H](c3ccc(N(C)C)cc3)C[C@@]21C ?
Response given: 38

Challenge: And for CSc1ccc([C@H]2C[C@@]3(C)[C@@H](CC[C@@]3(O)c3ccc(N(C)C)cc3)[C@@H]3CCC4=CC(=O)CCC4=C32)cc1 ?
Response given: 32

Challenge: And for CN(C)c1ccc([C@H]2C[C@@]3(C)[C@@H](CC[C@@]3(O)c3ccccc3O)[C@@H]3CCC4=CC(=O)CCC4=C32)cc1 ?
Response given: 47

Challenge: And for COc1ccc([C@H]2C[C@@]3(C)[C@@H](CC[C@@]3(O)c3ccc(OC)cc3)[C@@H]3CCC4=CC(=O)CCC4=C32)cc1 ?
Response given: 48

----------
The reader will find reported relative affinity of the bond (ARL), Glucocorticoid, 24H values listed item by item below.
- target-desc: glucocorticoid receptor, rat thymus (Rattus norvegicus)
- Construct: The second test was a glucocrticoid receptor test on rat thymus; from tissue; host or cells: thymus of adrenalectomized male Sprague Dawley EOPS rats, 105,000 g supernatant (cytosol)
- Sequence (P06536 1-795): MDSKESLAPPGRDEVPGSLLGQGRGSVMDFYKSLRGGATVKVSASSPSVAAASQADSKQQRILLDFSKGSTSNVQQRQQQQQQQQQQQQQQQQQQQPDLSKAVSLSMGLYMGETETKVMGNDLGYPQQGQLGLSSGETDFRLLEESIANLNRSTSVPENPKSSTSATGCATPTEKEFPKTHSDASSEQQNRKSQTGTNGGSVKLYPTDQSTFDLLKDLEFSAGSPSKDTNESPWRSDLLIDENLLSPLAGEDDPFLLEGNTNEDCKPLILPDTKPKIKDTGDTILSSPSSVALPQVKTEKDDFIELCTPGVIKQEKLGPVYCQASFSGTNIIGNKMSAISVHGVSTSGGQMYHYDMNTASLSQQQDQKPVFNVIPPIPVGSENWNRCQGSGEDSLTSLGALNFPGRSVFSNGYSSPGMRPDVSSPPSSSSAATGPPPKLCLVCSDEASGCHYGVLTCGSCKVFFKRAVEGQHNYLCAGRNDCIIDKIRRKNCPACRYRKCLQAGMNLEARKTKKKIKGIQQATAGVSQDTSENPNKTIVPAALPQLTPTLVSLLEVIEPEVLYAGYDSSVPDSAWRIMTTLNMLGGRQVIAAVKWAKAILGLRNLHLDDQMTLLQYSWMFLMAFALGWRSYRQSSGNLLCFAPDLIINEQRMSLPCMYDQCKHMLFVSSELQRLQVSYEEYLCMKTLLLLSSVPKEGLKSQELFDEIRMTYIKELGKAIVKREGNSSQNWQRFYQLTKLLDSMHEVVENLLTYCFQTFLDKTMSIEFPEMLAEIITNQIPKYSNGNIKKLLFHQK
- assay-overview: Relative binding affinity (ARL), glucocorticoid receptor of rat thymus
- conditions: incubation 24H at 0° C.; rat thymus cytosol; tritiated dexamethasone; cold reference dexamethasone
Reply briefly: the number, and no unit.

• CSc1ccc([C@H]2C[C@@]3(C)[C@@H](CC[C@@]3(O)c3ccc(N(C)C)cc3)[C@@H]3CCC4=CC(=O)CCC4=C32)cc1 = 57
• CN(C)c1ccc([C@H]2C[C@@]3(C)[C@@H](CC[C@@]3(O)c3cccc(O)c3)[C@@H]3CCC4=CC(=O)CCC4=C32)cc1 = 145
• CN(C)c1ccc([C@H]2C[C@@]3(C)[C@@H](CC[C@]3(O)c3cccc(O)c3)[C@@H]3CCC4=CC(=O)CCC4=C32)cc1 = 63

Challenge: Value wanted: relative affinity of the bond (ARL), Glucocorticoid, 24H (glucocorticoid receptor, rat thymus (Rattus norvegicus)) of entry Cc1ccc([C@]2(O)CC[C@H]3[C@@H]4CCC5=CC(=O)CCC5=C4[C@@H](c4ccc(N(C)C)cc4)C[C@@]32C)cc1
Response given: 40

Challenge: And for CN(C)c1ccc([C@H]2C[C@@]3(C)[C@@H](CC[C@@]3(O)c3ccccc3)[C@@H]3CCc4cc(O)ccc4[C@H]32)cc1 ?
Response given: 129

Challenge: And for COc1ccccc1[C@]1(O)CC[C@H]2[C@@H]3CCC4=CC(=O)CCC4=C3[C@@H](c3ccc(N(C)C)cc3)C[C@@]21C ?
Response given: 45
